# System: Septoria tritici
# EXPERIMENTAL_PROTOCOL: In vivo preventive test on Septoria tritici (leaf spot on wheat)
# CONDITION_LABEL: 500 ppm; wheat plants sprayed 24 hours before contamination; grading 21 to 28 days after contamination vs control plants
The threshold is 90%. Values of % of efficacy (protection) beneath it are tagged fulfilled; values meeting or exceeding it are tagged not fulfilled.

Solved entries:
1) CCCn1cc(CNC(=O)C2(OC)CC(c3ccc4ncc(Br)cc4c3)=NO2)c(C)n1 (stereo not drawn) : not fulfilled
2) Cc1nn(C(C)C)c(C)c1CNC(=O)C1(C)CC(c2ccc3ncc(Br)cc3c2)=NO1 (stereo not drawn) : fulfilled
3) CCC(C)NC(=O)C1(C)CC(c2cc3cc(Br)cnc3c(OC)c2OC)=NO1 (stereo not drawn) : not fulfilled
4) CCn1cc(CNC(=O)C2(C)CC(c3cc4cc(Br)cnc4c(OC)c3OC)=NO2)c(C)n1 (stereo not drawn) : not fulfilled

Consider now this further molecule.
Prompt: is_below(% of efficacy (protection), 90%) for CC(C)NC(=O)C1(C)CC(c2ccc3nc(Cl)c(Br)cc3c2)=NO1 (stereo not drawn) ?
Completion: fulfilled

---

# EXPERIMENTAL_PROTOCOL: physchem
# CONDITION_LABEL: pH 2.7
MEASURED_ATTRIBUTE: chromatographic logP
Output: the number by itself.

Some entries whose results are on file:
1. CC1(C(=O)O)CC(c2ccc3ncc(Cl)cc3c2)=NO1 (stereo not drawn) : 1.87
2. COC(=O)C1(C)CC(c2ccc3ncc(Cl)cc3c2)=NO1 (stereo not drawn) : 2.58

Would you kindly look at the next entry?
Prompt: chromatographic logP lookup needed for CC1(C(=O)O)CC(c2ccc3ncc(I)cc3c2)=NO1 (stereo not drawn) , thanks.
Completion: 2.05

---

# Tested on: Septoria tritici
# EXPERIMENTAL_PROTOCOL: In vivo preventive test on Septoria tritici (leaf spot on wheat)
# CONDITION_LABEL: 500 ppm; wheat plants sprayed 24 hours before contamination; grading 21 to 28 days after contamination vs control plants
MEASURED_ATTRIBUTE: % of efficacy (protection) (%)
Express your answer in %, writing the number without its unit.

1. CCOCC(C)NC(=O)C1(C)CC(c2ccc3ncc(Br)cc3c2)=NO1 (mixture of isomers) : 100
2. C#Cc1cnc2ccc(C3=NOC(C)(C(=O)NCc4ccc5[nH]ccc5c4)C3)cc2c1 (stereo not shown) : 75
3. C#Cc1cnc2ccc(C3=NOC(C)(C(=O)NCCCOCC(F)(F)F)C3)cc2c1 (stereo not shown) : 98

Would you kindly look at the next entry?
Prompt: % of efficacy (protection) lookup needed for CC1(C(=O)NCc2ccc(Cl)nc2)CC(c2ccc3ncc(Br)cc3c2)=NO1 (stereo not shown) , thanks.
Completion: 92

---

# Type: physicochemical
# CONDITION_LABEL: HPLC on reversed phase columns, method [a]: pH 2.7, 0.1% formic acid in water and acetonitrile, linear gradient 10% to 95% acetonitrile
MEASURED_ATTRIBUTE: log P

Some entries whose results are on file:
1) C#Cc1cnc2ccc(C3=NOC(C)(C(=O)NCc4ccc(OC)nc4)C3)cc2c1 (centres unmarked) : 2.37[a]
2) C#Cc1cnc2ccc(C3=NOC(C)(C(=O)NCc4ccnc(N(C)C)c4)C3)cc2c1 (centres unmarked) : 1.36[a]

Prompt: log P lookup needed for C=CC1(C(=O)NCCCOCC)CC(c2ccc3ncc(I)cc3c2)=NO1 (centres unmarked) , thanks.
Completion: 3.19[a]

Prompt: Here is the next molecule: C#Cc1cnc2ccc(C3=NOC(C)(C(=O)NCc4ccnc(OC(C)CC)c4)C3)cc2c1 (centres unmarked)
Completion: 3.06[a]

Prompt: Here is the next molecule: CC1(C(=O)NCc2cnn(CC(F)(F)F)c2)CC(c2ccc3ncc(Br)cc3c2)=NO1 (centres unmarked)
Completion: 2.60[a]

Prompt: Here is the next molecule: C#Cc1cnc2ccc(C3=NOC(C)(C(=O)N(Cc4cc(F)cc5c4C(C)(C)CCC5)C4CC4)C3)cc2c1 (racemic)
Completion: 5.54[a]

Prompt: Here is the next molecule: CCn1cc(CNC(=O)C2(C)CC(c3ccc4ncc(Br)cc4c3)=NO2)c(Cl)n1 (centres unmarked)
Completion: 2.84[a]

Prompt: Here is the next molecule: C=CC1(C(=O)NC(C)C)CC(c2ccc3ncc(I)cc3c2)=NO1 (centres unmarked)
Completion: 3.21[a]

---

# Type: physicochemical
# CONDITION_LABEL: HPLC on reversed phase columns, method [a]: pH 2.7, 0.1% formic acid in water and acetonitrile, linear gradient 10% to 95% acetonitrile
MEASURED_ATTRIBUTE: log P

Some entries whose results are on file:
1. CCC(C)Oc1cc(CNC(=O)C2(C)CC(c3ccc4ncc(Br)cc4c3)=NO2)ccn1 (centres unmarked) : 3.48[a]
2. CC(C)(C#N)NC(=O)C1(C)CC(c2ccc3ncc(Br)cc3c2)=NO1 (centres unmarked) : 2.68[a]
3. C#Cc1cnc2ccc(C3=NOC(OC)(C(=O)NCCC4CC4)C3)cc2c1 (centres unmarked) : 2.78[a]
4. C=CC1(C(=O)NCc2cn(CC)nc2C)CC(c2ccc3ncc(I)cc3c2)=NO1 (centres unmarked) : 2.75[a]
5. CSc1cc(CNC(=O)C2(C)CC(c3ccc4ncc(Br)cc4c3)=NO2)ccn1 (centres unmarked) : 2.62[a]

Prompt: log P lookup needed for C=CC1(C(=O)NCC2COC(C)(C)O2)CC(c2ccc3ncc(Br)cc3c2)=NO1 (centres unmarked) , thanks.
Completion: 2.98[a]

Prompt: Here is the next compound: CC(C)(C)Sc1cc(CNC(=O)C2(C)CC(c3ccc4ncc(Br)cc4c3)=NO2)ccn1 (centres unmarked)
Completion: 3.44[a]

Prompt: Here is the next compound: CN(C)c1cc(CNC(=O)C2(C)CC(c3ccc4ncc(Br)cc4c3)=NO2)ccn1 (centres unmarked)
Completion: 1.49[a]

---

# System: Septoria tritici
# EXPERIMENTAL_PROTOCOL: In vivo preventive test on Septoria tritici (leaf spot on wheat)
# CONDITION_LABEL: 500 ppm; wheat plants sprayed 24 hours before contamination; grading 21 to 28 days after contamination vs control plants
# Method: Wheat plants (“Scipion” variety), sown in starter cups on a 50/50 peat soil-pozzolana substrate and grown at 22° C. (12 h)/20° C. (12 h), are treated at the 1-leaf stage (10 cm height) by spraying with the active ingredient prepared as described above. Plants, used as controls, are treated with the mixture of acetone/tween/DMSO/water not containing the active material. […]
% of efficacy (protection) reference
Express your answer in %, writing the number without its unit.

Prompt: % of efficacy (protection) lookup needed for C#Cc1cnc2ccc(C3=NOC(C)(C(=O)NCc4cn(CCC)nc4C)C3)cc2c1 (centres unmarked) , thanks.
Completion: 92

Prompt: Here is the next molecule: CCCOc1cnc2ccc(C3=NOC(C)(C(=O)NCc4cn(CC)nc4C)C3)cc2c1 (centres unmarked)
Completion: 83

Prompt: Here is the next molecule: CCCn1cc(CNC(=O)C2(OC)CC(c3cc(C)c4ncc(Br)cc4c3)=NO2)c(C)n1 (centres unmarked)
Completion: 100

Prompt: Here is the next molecule: CC(C)NC(=O)C12CC1C(c1ccc3ncc(Br)cc3c1)=NO2 (racemic)
Completion: 75

Prompt: Here is the next molecule: C#Cc1cnc2ccc(C3=NOC(CC)(C(=O)NC4CCC4)C3)cc2c1 (racemic)
Completion: 75

Prompt: Here is the next molecule: Cc1cnc(CNC(=O)C2(C)CC(c3cc(C)c4ncc(Br)cc4c3)=NO2)cn1 (centres unmarked)
Completion: 100

Prompt: Here is the next molecule: CCn1cc(CNC(=O)C2(C)CC(c3ccc4ncc(-c5ccccc5)cc4c3)=NO2)c(C)n1 (centres unmarked)
Completion: 80

---

# Assay type: physicochemical
# CONDITION_LABEL: HPLC on reversed phase columns, method [a]: pH 2.7, 0.1% formic acid in water and acetonitrile, linear gradient 10% to 95% acetonitrile
MEASURED_ATTRIBUTE: log P

1) CC1(C(=O)NCc2cc(C#N)ccn2)CC(c2ccc3ncc(Br)cc3c2)=NO1 (stereo not shown) [compound 748] : 2.48[a]
2) CC1(C(=O)N(Cc2cc(F)cc3c2C(C)(C)CCC3)C2CC2)CC(c2ccc3ncc(Br)cc3c2)=NO1 (stereo not shown) [compound 815] : 6.11[a]

Prompt: log P lookup needed for C#Cc1cnc2ccc(C3=NOC(C=C)(C(=O)NCc4cn(CC)nc4C)C3)cc2c1 (stereo not shown) [compound 724] , thanks.
Completion: 2.37[a]

Prompt: Here is the next molecule: C#Cc1cnc2ccc(C3=NOC(C)(C(=O)NCc4cncnc4)C3)cc2c1 (stereo not shown) [compound 697]
Completion: 1.74[a]

---

# Assay type: physicochemical
# CONDITION_LABEL: method [a]: HPLC/LC-MS on reversed phase at pH 2.7, 0.1% formic acid in water / acetonitrile, linear gradient 10% to 95% acetonitrile
MEASURED_ATTRIBUTE: log P

1) CC(C)C1(C(=O)NC2CC2)CC(c2ccc3ncc(Br)cc3c2)=NO1 (centres unmarked) : 3.11^[a]

Prompt: log P lookup needed for CCn1cnnc1CNC(=O)C1(C)CC(c2ccc3ncc(Br)cc3c2)=NO1 (centres unmarked) , thanks.
Completion: 1.72^[a]

Prompt: Here is the next compound: COC1(C(=O)NC(C)C)CC(c2ccc3ncc(Br)cc3c2)=NO1 (centres unmarked)
Completion: 2.64^[a]

Prompt: Here is the next compound: CC1(C(=O)NCc2ccc3c(c2)OCC3)CC(c2ccc3ncc(Br)cc3c2)=NO1 (centres unmarked)
Completion: 3.17^[a]

Prompt: Here is the next compound: CC1(C(=O)NCc2ccc(Oc3ccccc3)cc2)CC(c2ccc3ncc(Br)cc3c2)=NO1 (centres unmarked)
Completion: 4.24^[a]

Prompt: Here is the next compound: C#Cc1cnc2ccc(C3=NOC(C)(C(=O)NCc4c(C)nn(C(C)C)c4C)C3)cc2c1 (centres unmarked)
Completion: 2.32^[a]

Prompt: Here is the next compound: Cc1nc(CNC(=O)C2(C)CC(c3ccc4ncc(Br)cc4c3)=NO2)no1 (centres unmarked)
Completion: 2.23^[a]

Prompt: Here is the next compound: CC1(C(=O)NCc2ccccc2Cl)CC(c2ccc3ncc(Br)cc3c2)=NO1 (centres unmarked)
Completion: 3.61^[a]

Prompt: Here is the next compound: C#Cc1cnc2ccc(C3=NOC(C)(C(=O)NCc4cnn(C)c4C)C3)cc2c1 (centres unmarked)
Completion: 1.93^[a]

Prompt: Here is the next compound: CC1(C(=O)NC2CC2C2CC2)CC(c2ccc3ncc(Br)cc3c2)=NO1 (centres unmarked)
Completion: 3.29^[a]

Prompt: Here is the next compound: CC(C)NC(=O)C1(C(F)(F)F)CC(c2ccc3ncc(Br)cc3c2)=NO1 (centres unmarked)
Completion: 3.52^[a]

Prompt: Here is the next compound: C#Cc1cnc2ccc(C3=NOC(C)(C(=O)NCC#Cc4ccc(Cl)cc4)C3)cc2c1 (centres unmarked)
Completion: 3.65^[a]

Prompt: Here is the next compound: CCn1cc(CNC(=O)C2(C(C)C)CC(c3ccc4ncc(Br)cc4c3)=NO2)c(C)n1 (centres unmarked)
Completion: 2.94^[a]

Prompt: Here is the next compound: C#Cc1cnc2ccc(C3=NOC(C)(C(=O)NCc4ccc(Cl)nc4)C3)cc2c1 (centres unmarked)
Completion: 2.44^[a]

Prompt: Here is the next compound: C#Cc1cnc2ccc(C3=NOC(C)(C(=O)NCc4ccc(C)n4C)C3)cc2c1 (centres unmarked)
Completion: 2.88^[a]

Prompt: Here is the next compound: CCn1cc(CNC(=O)C2(C)CC(c3ccc4ncc([S+](C)[O-])cc4c3)=NO2)c(C)n1 (centres unmarked)
Completion: 1.34^[a]

Prompt: Here is the next compound: C#Cc1cnc2ccc(C3=NOC(C)(C(=O)NCc4cccc(OC(F)(F)F)c4)C3)cc2c1 (centres unmarked)
Completion: 3.48^[a]
